# maps each entry to its Population Normal (%)
test system: Fibroblast; test: Multiplex assay against human fibroblast; format: toxicity, cell-based; settings: 12 h, 10 µM, compound concentration 10 uM, replicate 2
Provide only the numeric value, understood in %.

Below, each entry is followed by its recorded Population Normal (%) result.
[[record]]
compound = "COc1ccc2c(c1)C(C(=O)N(Cc1ccc(N(C)C)cc1)c1ccc(C(C)C)cc1)CCC2.Cl (stereo not given)"
tested_system = "Fibroblast"
measurement_type = "Population Normal (%)"
measured = 97

[[record]]
compound = "Oc1c(CN2CCN(c3ccccn3)CC2)cc(Cl)c2cccnc12"
tested_system = "Fibroblast"
measurement_type = "Population Normal (%)"
measured = 97

[[record]]
compound = "CN(C)c1ccnc2sc3c(=O)n(N4CCCCCC4)cnc3c12"
tested_system = "Fibroblast"
measurement_type = "Population Normal (%)"
measured = 92

[[record]]
compound = "CCCn1c(=O)c2[nH]c(C3CCCC3)nc2n(CCC)c1=O"
tested_system = "Fibroblast"
measurement_type = "Population Normal (%)"
measured = 93


Please find the next compound below.
Using known records, supply Population Normal (%) for CCNC1(C(N)=O)CCN(c2ncnc3c2nc(-c2ccccc2Cl)n3-c2ccc(Cl)cc2)CC1 [OTENABANT] 96
